Consider the following compounds; for each one, report its MIC.
# Test system: Pseudomonas aeruginosa K 799/61
# protocol_text: Agar dilution MIC in DST agar (Ericsson and Sherris)
# Type: cell-based
# stated_conditions: Pseudomonas aeruginosa, K799/61, read-out: MIC Pseu. 799
One number for each entry, in µg/mL.

compound	parameter	assay_value
CO[C@H]1/C=C/O[C@@]2(C)Oc3c(C)c(O)c4c(O)c(c5[nH]c(N6CCC(N7CCCCC7)CC6)nc5c4c3C2=O)NC(=O)/C(C)=C\C=C\[C@H](C)[C@H](O)[C@@H](C)[C@@H](O)[C@@H](C)[C@H](OC(C)=O)[C@@H]1C	MIC	16
CCCN(CCC)c1nc2c3c(O)c4c(O)c(C)c5c(c4c2[nH]1)C(=O)C(C)(OC=CC(OC)C(C)C(OC(C)=O)C(C)C(O)C(C)C(O)C(C)C=CC=C(C)C(=O)N3)O5 (stereo not shown)	MIC	8
COC1C=COC2(C)Oc3c(C)c(O)c4c(O)c(c5nc(N6CCOCC6)[nH]c5c4c3C2=O)NC(=O)C(C)=CC=CC(C)C(O)C(C)C(O)C(C)C(OC(C)=O)C1C (stereo not shown)	MIC	8

// moving on: another record for MIC
Lab note: need MIC for CCN(CCO)c1nc2c([nH]1)c1c(O)c3c(O)c(C)c4c(c32)C(=O)[C@@](C)(O/C=C/[C@H](OC)[C@@H](C)[C@@H](OC(C)=O)[C@H](C)[C@H](O)[C@H](C)[C@@H](O)[C@@H](C)/C=C/C=C(/C)C(=O)N1)O4 on Pseudomonas aeruginosa K 799/61, anyone have it?
16

----------
# Test system: Pseudomonas aeruginosa K 799/61
# protocol_text: Agar dilution MIC in DST agar (Ericsson and Sherris)
# Assay type: cell-based
# stated_conditions: Pseudomonas aeruginosa, K799/61, read-out: MIC Pseu. 799
parameter: MIC (µg/mL)
Give bare numbers, in µg/mL.

Solved entries:
compound	MIC, µg/mL
CO[C@H]1/C=C/O[C@@]2(C)Oc3c(C)c(O)c4c(O)c(c5nc(N6CCN(CC7CCCC7)CC6)[nH]c5c4c3C2=O)NC(=O)/C(C)=C\C=C\[C@H](C)[C@H](O)[C@@H](C)[C@@H](O)[C@@H](C)[C@H](OC(C)=O)[C@@H]1C	32
COC(CN(C)c1nc2c([nH]1)c1c(O)c3c(O)c(C)c4c(c32)C(=O)[C@@](C)(O/C=C/[C@H](OC)[C@@H](C)[C@@H](OC(C)=O)[C@H](C)[C@H](O)[C@H](C)[C@@H](O)[C@@H](C)/C=C/C=C(/C)C(=O)N1)O4)OC	16
CO[C@H]1/C=C/O[C@@]2(C)Oc3c(C)c(O)c4c(O)c(c5nc(N6CCN(c7ccccn7)CC6)[nH]c5c4c3C2=O)NC(=O)/C(C)=C\C=C\[C@H](C)[C@H](O)[C@@H](C)[C@@H](O)[C@@H](C)[C@H](OC(C)=O)[C@@H]1C	8
CCC(C)CN1CCN(c2nc3c([nH]2)c2c(O)c4c(O)c(C)c5c(c43)C(=O)[C@@](C)(O/C=C/[C@H](OC)[C@@H](C)[C@@H](OC(C)=O)[C@H](C)[C@H](O)[C@H](C)[C@@H](O)[C@@H](C)/C=C/C=C(/C)C(=O)N2)O5)CC1 (stereo partly drawn)	16
CC=C(CC)CN1CCN(c2nc3c([nH]2)c2c(O)c4c(O)c(C)c5c(c43)C(=O)[C@@](C)(O/C=C/[C@H](OC)[C@@H](C)[C@@H](OC(C)=O)[C@H](C)[C@H](O)[C@H](C)[C@@H](O)[C@@H](C)/C=C/C=C(/C)C(=O)N2)O5)CC1	32

Go through the items and report each one's MIC.
1. COC1C=COC2(C)Oc3c(C)c(O)c4c(O)c(c5nc(N6CCN(C)CC6)[nH]c5c4c3C2=O)NC(=O)C(C)=CC=CC(C)C(O)C(C)C(O)C(C)C(OC(C)=O)C1C (stereo not drawn)
2. COC1C=COC2(C)Oc3c(C)c(O)c4c(O)c(c5nc(N6CCN(CC7CCCCC7)CC6)[nH]c5c4c3C2=O)NC(=O)C(C)=CC=CC(C)C(O)C(C)C(O)C(C)C(OC(C)=O)C1C (stereo not drawn)
3. CO[C@H]1/C=C/O[C@@]2(C)Oc3c(C)c(O)c4c(O)c(c5[nH]c(N6CCc7ccccc76)nc5c4c3C2=O)NC(=O)/C(C)=C\C=C\[C@H](C)[C@H](O)[C@@H](C)[C@@H](O)[C@@H](C)[C@H](OC(C)=O)[C@@H]1C [Verbindung 20, 4-Indolinyl-imidazolo[4,5-c]rifamycin SV]
4. C=C(C)CN1CCN(c2nc3c([nH]2)c2c(O)c4c(O)c(C)c5c(c43)C(=O)[C@@](C)(O/C=C/[C@H](OC)[C@@H](C)[C@@H](OC(C)=O)[C@H](C)[C@H](O)[C@H](C)[C@@H](O)[C@@H](C)/C=C/C=C(/C)C(=O)N2)O5)CC1

1. 4
2. 16
3. 16
4. 32
